Data provenance is PubChem BioAssay AID540269.

# test_target: glucose-6-phosphate dehydrogenase-6-phosphogluconolactonase (Plasmodium falciparum 3D7)
# test_details: PfG6PD enzyme inhibitors, kinetic NADPH readout, dose response, orthogonal assay, biochemical, kinetic NADPH detection (AID 540269)
# measurement_setup: purified PfG6PD-6PGL
Active and inactive are the calls of the source. The rule behind the calls is not given here.
The reply should be one of these categories: active, inactive

compound: O=c1c2cc(C(F)(F)F)ccc2sn1-c1ccccc1
class_name: active
//
compound: CCC1(CC)Cc2ccccc2C(N)=C1C#N
class_name: inactive

QUERY: Hi, do you know how CC(=O)Nc1ccc2sn(-c3ccccc3)c(=O)c2c1 came out in this test?
RESULT: active

QUERY: Hi, do you know how Clc1nssc1=Nc1nncs1 came out in this test?
RESULT: active

QUERY: Hi, do you know how Clc1ccc(N=c2ssnc2Cl)nc1 came out in this test?
RESULT: inactive

QUERY: Hi, do you know how CCN(CC)CCNC(=O)CCCCn1c(=S)[nH]c2c([nH]c3ccc(OC)cc32)c1=O came out in this test?
RESULT: active

QUERY: Hi, do you know how O=C(CCc1ccc(O)c(O)c1)N/N=C/c1cc2c(cc1[N+](=O)[O-])OCO2 came out in this test?
RESULT: active

QUERY: Hi, do you know how S=C(NN=Cc1ccccn1)N(Cc1ccccn1)Cc1ccccn1 came out in this test?
RESULT: active

====

# test_target: glucose-6-phosphate dehydrogenase-6-phosphogluconolactonase (Plasmodium falciparum 3D7)
# test_details: PfG6PD enzyme inhibitors, kinetic NADPH readout, dose response, orthogonal assay, biochemical, kinetic NADPH detection (AID 540269)
# measurement_setup: purified PfG6PD-6PGL
Activity calls are given as the source filed them. No rule for the calls is given here.
The reply should be one of these categories: active, inactive

Illustrative cases are given below, each with its answer.
compound: O=C(O)CSc1cc(NS(=O)(=O)c2cccc([N+](=O)[O-])c2)c2ccccc2c1O
class_name: inactive
//
compound: CCN1CCN(C(=S)c2ccc(O)cc2)CC1
class_name: inactive
//
compound: CCCN1CCc2cccc3c2[C@H]1Cc1ccc(O)c(O)c1-3
class_name: inactive
//
compound: O=C(CNC(=O)c1ccccc1)NCC(=O)OCC(=O)c1ccc([N+](=O)[O-])cc1
class_name: active

Consider the additional compound presented here.
QUERY: Hi, do you know how CCOc1ccc2ccccc2c1/C=N/NC(=O)c1ccncc1 came out in this test?
RESULT: inactive

====

# test_target: glucose-6-phosphate dehydrogenase-6-phosphogluconolactonase (Plasmodium falciparum 3D7)
# test_details: PfG6PD enzyme inhibitors, kinetic NADPH readout, dose response, orthogonal assay, biochemical, kinetic NADPH detection (AID 540269)
# measurement_setup: purified PfG6PD-6PGL
Activity calls are given as the source filed them. How the calls were made is not given here.
The reply should be one of these categories: active, inactive

compound: CC(=O)Nc1cc([N+](=O)[O-])ccc1OCc1ccccc1
class_name: inactive
//
compound: COc1cccc(C(=O)Nc2nnc(C(C)C)s2)c1
class_name: active
//
compound: COC1=CC(=O)C=C(OC)C1(O)CC(C)=O
class_name: inactive
//
compound: CCc1c(C(=O)Nc2ccccc2)c(C)[nH]c(=S)c1C#N
class_name: inactive
//
compound: Cc1nnc(N/N=C\c2ccc(-c3cccc(C(=O)O)c3)o2)n1N
class_name: active
//
compound: COc1cc(-c2cc(OC)c(O)c(OC)c2)cc(OC)c1O
class_name: inactive
//
compound: Cc1ccc(/C=C/C(=O)N2CCN(S(=O)(=O)c3ccc(C)c(C)c3)CC2)o1
class_name: inactive
//
compound: CC(=O)Nc1ccc2c(=O)n(-c3ccccc3)sc2c1
class_name: active

QUERY: Hi, do you know how CC(C)(C)c1ccc(C(=O)Nc2sc3c(c2C(=O)O)CCC3)cc1 came out in this test?
RESULT: active

QUERY: Hi, do you know how Cc1ccc(C(=O)NCC(=O)NCC(=O)OCC(=O)c2ccc([N+](=O)[O-])cc2)cc1 came out in this test?
RESULT: inactive

QUERY: Hi, do you know how COc1cc(/C=N/n2cc(-c3ccccc3)[nH]c2=S)cc(OC)c1O came out in this test?
RESULT: active
